# System: MOLM14
# assaySummary: cell viability relative to vehicle control; higher = less cytotoxic;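 also: after 48 h exposure read by CellTiter-Glo luminescence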
# protocolConditions: 10 µM; SRSF2 genotype: SRSF2 P95H/wt
Where a name gives a salt, the structure may show the parent alone.
observable: cell viability (%)
Only the number, expressed in %, is required.

Take a look at these entries with their results.
Note to self: cell viability recorded for CC(=O)OCC(=O)[C@@]1(O)CC[C@H]2[C@@H]3CCC4=CC(=O)C=C[C@]4(C)[C@H]3[C@@H](O)C[C@@]21C [Prednisolone acetate (Omnipred)] was 80.5

Note to self: cell viability recorded for Cc1nn(C)c(COc2ccc(N3CCN(S(=O)(=O)N(C)C)CC3)cc2)c1-c1cccc2c(CCCOc3cccc4ccccc34)c(C(=O)O)n(CCN3CCOCC3)c12 was 98.3

Note to self: cell viability recorded for CC1(C)CCC[C@](C)([C@H]2CC[C@]3(C)[C@@H]2[C@H](O)C[C@@H]2[C@@]4(C)CC[C@H](O)C(C)(C)[C@@H]4[C@@H](O)C[C@]23C)O1 was 98.6

Note to self: cell viability recorded for O=C(O)[C@@]1(CCCCCCOc2ccc(Cl)cc2)CO1 [Etomoxir (Na salt)] was 106

Note to self: cell viability recorded for CC1CNC(=O)NC1=O (centres undefined) [Dihydrothymine] was 97.7

Further cases:
Note to self: cell viability recorded for CC1(C)CCC(C)(C)c2cc(NC(=O)c3ccc(C(=O)O)cc3)ccc21 was 88.8

Note to self: cell viability recorded for Cc1ccc(/C=C2/C(=O)C3(C)CCC2C3(C)C)cc1 (centres undefined) was 95.5

Note to self: cell viability recorded for CC/C(=C(/c1ccc(/C=C/C(=O)O)cc1)c1ccc2[nH]ncc2c1)c1ccc(F)cc1Cl was 86.8

Note to self: cell viability recorded for CCc1cc2c(cc1CC)CC(NC[C@H](O)c1ccc(O)c3[nH]c(=O)ccc13)C2 [Indacaterol Maleate] was 62

###

# Tested on: MARIMO
# assaySummary: cell viability relative to vehicle control; higher = less cytotoxic
# protocolConditions: 10 µM; SRSF2 genotype: SRSF2 wt/wt
Where a name gives a salt, the structure may show the parent alone.
Each item that follows carries a reported cell viability.
Only the number, expressed in %, is required.

Note to self: cell viability recorded for COc1cc(/C=C/C(=O)CC(=O)/C=C/c2ccc(O)c(OC)c2)ccc1O was 75.7

Further cases:
Note to self: cell viability recorded for CCc1nc(N)nc(N)c1-c1ccc(Cl)cc1 was 99.7

Note to self: cell viability recorded for CC(C)C[C@H](NP(=O)(O)O[C@@H]1O[C@@H](C)[C@H](O)[C@@H](O)[C@H]1O)C(=O)N[C@@H](Cc1c[nH]c2ccccc12)C(=O)O [Phosphoramidon Disodium Salt] was 106

###

# Tested on: OCI-AML2
# assaySummary: cell viability relative to vehicle control; higher = less cytotoxic
# protocolConditions: 10 µM; SRSF2 genotype: wt/wt
Counter-ions that a name gives are not always drawn.
Quick rule for you: cell viability under 40% gets True, anything else gets False.

### Prompt Does the reported cell viability of the following molecule sit strictly below 40%? Cn1cc(C(=O)Nc2ccc3c(c2)OCCO3)c2ccccc2c1=O
### Response False

### Prompt Does the reported cell viability of the following molecule sit strictly below 40%? C[C@@]1(CO)C[C@@H](O)C[C@@]2(C)[C@@H]3CC[C@](C)([C@@H](O)CO)C=C3CC[C@H]12
### Response False

### Prompt Does the reported cell viability of the following molecule sit strictly below 40%? O=C(Nc1ccccc1)N1CCN(c2nc(-c3ccccc3)ns2)CC1
### Response False

### Prompt Does the reported cell viability of the following molecule sit strictly below 40%? C=CC(=O)N1CCC(Oc2cc3c(Nc4ccc(Cl)c(Cl)c4F)ncnc3cc2OC)CC1 [Poziotinib (HM781-36B)]
### Response False

### Prompt Does the reported cell viability of the following molecule sit strictly below 40%? CCCCCCCCc1ccc(CCC(N)(CO)CO)cc1 [Fingolimod (FTY720) HCl]
### Response True

Origin of the recorded values: the supplement of paper PMC10981050
